Molecular target: NAMPT (Homo sapiens)
Construct: His tag; host or cells: E. coli
Experiment: Biochemical inhibition assay: NAMPT enzymatic reaction, NMN quantified by mass spectrometry
Details: NAMPT enzymatic assay; read-out: Biochem IC50
Source text: Biochemical Inhibition Assay NAMPT Protein Purification Recombinant His-tagged NAMPT was produced in E. coli cells, purified over a Ni column, and further purified over a size-exclusion column by XTAL Biostructures. The NAMPT Enzymatic Reaction […] A mass spectrometry-based assay was used to measure the NAMPT reaction product (NMN) and the internal control (L-Cystathionine). NMN and L-Cystathionine were detected using the services of Biocius Lifesciences with the RapidFire system. […]
value kind: log10(IC50) (log10 of the value in nM)
The figures below represent log10 of IC50, where IC50 is stated in nM.

smiles structure: O=C(NCc1ccc(S(=O)(=O)c2cnc3n2CCCCC3)cc1)c1cc2ccncc2s1
system tested: NAMPT (Homo sapiens)
recorded value: 0.48
//
smiles structure: O=C(NCc1ccc(S(=O)(=O)c2cnn(-c3ccc(F)cc3)c2)cc1)c1cc2ccncc2o1
system tested: NAMPT (Homo sapiens)
recorded value: 0.84
//
smiles structure: O=C(NCc1ccc(S(=O)(=O)c2ccc(C(F)(F)F)c(F)c2)cc1)c1ccc2nccn2c1
system tested: NAMPT (Homo sapiens)
recorded value: 1.60
//
smiles structure: O=C(NCc1ccc(S(=O)(=O)c2ccc(F)c(C(F)(F)F)c2)cc1)c1cc2ccncc2o1
system tested: NAMPT (Homo sapiens)
recorded value: 0.91
//
smiles structure: O=C(NCc1ccc(S(=O)(=O)c2cccc(N3CCCCC3)c2)cc1)c1cc2ccncc2o1
system tested: NAMPT (Homo sapiens)
recorded value: 1.05

Switching to the query record.
## Input Any idea what its log10(IC50) is? The molecule is Cn1ncc2cccc(S(=O)(=O)c3ccc(CNC(=O)c4cnc5nccn5c4)cc3)c21
## Output 1.37

====

Target: NAMPT (Homo sapiens, UniProt P43490)
Construct: His tag; host or cells: E. coli
Sequence (P43490 whole entry): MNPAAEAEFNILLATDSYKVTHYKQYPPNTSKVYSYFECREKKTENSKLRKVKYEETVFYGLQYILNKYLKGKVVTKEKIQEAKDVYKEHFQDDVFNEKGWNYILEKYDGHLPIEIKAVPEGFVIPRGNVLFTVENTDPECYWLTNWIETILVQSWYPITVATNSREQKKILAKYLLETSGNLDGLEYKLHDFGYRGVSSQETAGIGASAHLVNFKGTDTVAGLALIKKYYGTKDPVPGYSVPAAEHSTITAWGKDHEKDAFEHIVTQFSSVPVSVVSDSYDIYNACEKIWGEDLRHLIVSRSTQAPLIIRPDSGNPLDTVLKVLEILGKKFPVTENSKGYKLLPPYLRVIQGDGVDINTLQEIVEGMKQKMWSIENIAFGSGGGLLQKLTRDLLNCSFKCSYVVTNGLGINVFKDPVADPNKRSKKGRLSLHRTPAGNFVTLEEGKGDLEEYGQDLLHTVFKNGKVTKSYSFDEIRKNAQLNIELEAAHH
Assay: Biochemical inhibition assay: NAMPT enzymatic reaction, NMN quantified by mass spectrometry
Details: NAMPT enzymatic assay; read-out: Biochem IC50
Entries annotated with measured log10(IC50)
The figures below represent log10 of IC50, where IC50 is stated in nM.

smiles structure: CN(C)c1ncc(S(=O)(=O)c2ccc(CNC(=O)c3cc4ccncc4o3)cc2)cn1
log10(IC50): 1.41
//
smiles structure: COc1cc(-n2cccn2)ccc1S(=O)(=O)c1ccc(CNC(=O)c2cc3ccncc3o2)cc1
log10(IC50): 0.81
//
smiles structure: O=C(NCc1ccc(S(=O)(=O)c2cc(CO)ccc2Cl)cc1)c1cc2cnccc2[nH]1
log10(IC50): 0.92
//
smiles structure: Cc1cncc(S(=O)(=O)c2ccc(CNC(=O)c3cc4ccncc4o3)cc2)n1
log10(IC50): 1.32

## Input Any idea what its log10(IC50) is? The molecule is CC(C)COc1cc(F)cc(S(=O)(=O)c2ccc(CNC(=O)c3cnc4nccn4c3)cc2)c1
## Output 0.49

## Input O=C(NCc1ccc(S(=O)(=O)c2cnc3ccc(Cl)cn23)cc1)c1cc2ccncc2s1 , same question.
## Output 0.08

## Input O=C(NCc1ccc(S(=O)(=O)c2cccc(N3CCOCC3)c2)cc1)c1cc2ccncc2o1 , same question.
## Output 0.70

## Input N#CC1(c2ccc(S(=O)(=O)c3ccc(CNC(=O)c4cc5ccncc5o4)cc3)cc2)CCCC1 , same question.
## Output 0.90

## Input O=C(NCc1ccc(S(=O)(=O)c2cccc(C(F)(F)F)n2)cc1)c1cnc2nccn2c1 , same question.
## Output 1.06

## Input Cn1ncc2cccc(S(=O)(=O)c3ccc(CNC(=O)c4cc5ccncc5s4)cc3)c21 , same question.
## Output 0.65

## Input O=C(NCc1ccc(S(=O)(=O)c2cc(C(F)(F)F)ccc2OCc2ccccc2)cc1)c1cc2cnccc2[nH]1 , same question.
## Output 2.11

## Input COCc1cccc(S(=O)(=O)c2ccc(CNC(=O)c3cnc4[nH]ncc4c3)cc2)c1 , same question.
## Output 1.59

## Input CC(C)c1ccc(S(=O)(=O)c2ccc(CNC(=O)c3cc4ccncc4o3)cc2)cc1 , same question.
## Output 1.08

## Input Cn1ncc2ccc(S(=O)(=O)c3ccc(CNC(=O)c4ccc5nccn5c4)cc3)cc21 , same question.
## Output 0.70

## Input Cn1cc2cc(S(=O)(=O)c3ccc(CNC(=O)c4ccc5nccn5c4)cc3)ccc2n1 , same question.
## Output 1.12

## Input Cc1ccc(F)cc1S(=O)(=O)c1ccc(CNC(=O)c2cnc3nccn3c2)cc1 , same question.
## Output 0.43

## Input O=C(NCc1ccc(S(=O)(=O)c2cccc3ccsc23)cc1)c1cc2ccncc2s1 , same question.
## Output 0.18

## Input Cc1cc(-n2cccn2)ccc1S(=O)(=O)c1ccc(CNC(=O)c2cc3ccncc3o2)cc1 , same question.
## Output 0.79

Values from patent US12336981B2
